TEST_SYSTEM: M2 muscarinic receptor (Homo sapiens, UniProt P08172)
Sequence (P08172 1-466): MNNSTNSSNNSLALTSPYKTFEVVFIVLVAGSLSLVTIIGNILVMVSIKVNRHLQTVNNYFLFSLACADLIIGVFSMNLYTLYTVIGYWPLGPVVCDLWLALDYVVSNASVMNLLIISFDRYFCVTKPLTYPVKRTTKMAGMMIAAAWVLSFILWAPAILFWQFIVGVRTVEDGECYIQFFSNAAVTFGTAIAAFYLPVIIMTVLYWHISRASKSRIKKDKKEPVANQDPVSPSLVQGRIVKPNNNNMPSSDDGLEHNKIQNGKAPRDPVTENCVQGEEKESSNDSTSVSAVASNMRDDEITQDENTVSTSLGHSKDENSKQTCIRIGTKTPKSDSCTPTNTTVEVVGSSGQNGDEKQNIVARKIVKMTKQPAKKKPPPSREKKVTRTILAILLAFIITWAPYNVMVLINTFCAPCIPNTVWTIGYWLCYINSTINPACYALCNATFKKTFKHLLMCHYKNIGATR
TEST_DESCRIPTION: Functional mobilization of intracellular calcium (FLIPR) in CHO cells expressing M2
MEASUREMENT_PARAMETERS: CHO cells expressing M2, FLIPR calcium
REPORTED_ENDPOINT: EC50

Please review the entries below; each comes with its answer.
- COMPOUND: "Cn1cnc(C(=O)N[C@@H]2CCC3(CCN(CCC(C)(C)C)CC3)c3cc(F)ccc32)c1 [compound 180]"
  EC50: "< 2 µM"
- COMPOUND: "C[C@H](C(=O)N[C@H]1CCC2(CCN(CCC(C)(C)C)CC2)c2ccccc21)N1CCCC1=O [compound 109]"
  EC50: "> 5 µM"
- COMPOUND: "CC(=O)N1CCCC(C(=O)N[C@H]2CCC3(CCN(CCC(C)(C)C)CC3)c3cc(F)ccc32)C1 (stereo partly shown) [compound 59]"
  EC50: "2 to 5 µM"
- COMPOUND: "COCCC(=O)N[C@@H]1CCC2(CCN(CCC(C)(C)C)CC2)c2ccccc21 [compound 105]"
  EC50: "> 5 µM"
- COMPOUND: "CC(=O)NCCC(=O)N[C@H]1CCC2(CCN(CCC(C)(C)C)CC2)c2cc(F)ccc21 [compound 96]"
  EC50: "< 2 µM"

stdin: Find the measured EC50 of CC(=O)N1CCCC(C(=O)N[C@H]2CCC3(CCN(CCC(C)(C)C)CC3)c3ccccc32)C1 (stereo partly shown) [compound 121] and report it.
stdout: > 5 µM

stdin: Find the measured EC50 of C[C@@H](C(=O)N[C@H]1CCC2(CCN(CCC(C)(C)C)CC2)c2ccccc21)N1CCCC1=O [compound 137] and report it.
stdout: > 5 µM

stdin: Find the measured EC50 of CC(C)CCN1CCC2(CC[C@H](NC(=O)C3CC3)c3ccccc32)CC1 [compound 125] and report it.
stdout: 2 to 5 µM

stdin: Find the measured EC50 of CC(=O)N1CCC(C(=O)N[C@H]2CCC3(CCN(CCC(C)(C)C)CC3)c3cc(F)ccc32)CC1 [compound 81] and report it.
stdout: > 5 µM

stdin: Find the measured EC50 of CC(=O)N(C)CCC(=O)N[C@H]1CCC2(CCN(CCC(C)(C)C)CC2)c2ccccc21 [compound 171] and report it.
stdout: < 2 µM

stdin: Find the measured EC50 of COC(=O)N(C)[C@H]1CCC2(CCN(CCC(C)(C)C)CC2)c2ccccc21 [compound 174] and report it.
stdout: > 5 µM

stdin: Find the measured EC50 of CC(C)(C)CCN1CCC2(CC[C@H](NC(=O)CC3CCOCC3)c3ccccc32)CC1 [compound 135] and report it.
stdout: > 5 µM

stdin: Find the measured EC50 of CC(=O)NCC(=O)N[C@H]1CCC2(CCN(CCC(C)(C)C)CC2)c2cc(F)ccc21 [compound 33] and report it.
stdout: < 2 µM

stdin: Find the measured EC50 of CCC(=O)N[C@H]1CCC2(CCN(CCC(C)(C)C)CC2)c2ccccc21 [compound 156] and report it.
stdout: < 2 µM

stdin: Find the measured EC50 of CC(=O)CCC(=O)N[C@H]1CCC2(CCN(CCC(C)(C)C)CC2)c2cc(F)ccc21 [compound 92] and report it.
stdout: < 2 µM

stdin: Find the measured EC50 of CC(=O)N[C@H]1CCC2(CCN(CCCCC(C)(C)C#N)CC2)c2ccccc21 [compound 179] and report it.
stdout: > 5 µM

stdin: Find the measured EC50 of C[C@H](C(=O)N[C@@H]1CCC2(CCN(CCC(C)(C)C)CC2)c2ccccc21)N1CCCCC1=O [compound 113] and report it.
stdout: > 5 µM

stdin: Find the measured EC50 of CC(C)(C)CCN1CCC2(CCC(C#N)c3ccccc32)CC1 (stereo not shown) [compound 97] and report it.
stdout: < 2 µM

stdin: Find the measured EC50 of CC(=O)N1CCCC[C@H]1C(=O)N[C@H]1CCC2(CCN(CCC(C)(C)C)CC2)c2cc(F)ccc21 [compound 83] and report it.
stdout: > 5 µM

stdin: Find the measured EC50 of CC(C)(C)CCN1CCC2(CC[C@H](NC(=O)C3CC3)c3ccccc32)CC1 [compound 158] and report it.
stdout: < 2 µM

stdin: Find the measured EC50 of Cn1cc(C(=O)N[C@H]2CCC3(CCN(CCC(C)(C)C)CC3)c3ccccc32)cn1 [compound 58] and report it.
stdout: < 2 µM

stdin: Find the measured EC50 of CN1CC(C(=O)N[C@H]2CCC3(CCN(CCC(C)(C)C)CC3)c3ccccc32)CC1=O (stereo partly shown) [compound 144] and report it.
stdout: < 2 µM

stdin: Find the measured EC50 of CCN(C(=O)C1CCC(=O)C1)[C@H]1CCC2(CCN(CCC(C)(C)C)CC2)c2ccccc21 (stereo partly shown) [compound 44] and report it.
stdout: > 5 µM

stdin: Find the measured EC50 of CC(=O)N[C@H]1CCC2(CCN(CC=C(C)C)CC2)c2ccccc21 [compound 150] and report it.
stdout: > 5 µM

stdin: Find the measured EC50 of CN(C(=O)C1CCCC1)[C@H]1CCC2(CCN(CCC(C)(C)C)CC2)c2ccccc21 [compound 178] and report it.
stdout: > 5 µM

stdin: Find the measured EC50 of C[C@H](C(=O)N[C@@H]1CCC2(CCN(CCC(C)(C)C)CC2)c2cc(F)ccc21)N1CCCC1=O [compound 78] and report it.
stdout: < 2 µM
